Tested on: SR
Assay: NCI tumour cell line growth inhibition, 48 h
The source made the active and inactive calls. Cut-off read from the data, not from the text of the source: active = GI50 up to about 1.1 µM and inactive = higher. *1 amine or outer side, *2 acyl side, *3 side chain or, on linkers, in order; H or OH if unused. Where a SMILES comes first, the peptide text is derived from it. Bridges are numbered along the chain shown (N, C = ends). Roman numbers before positions name the chains, in order. [ ]: non-standard residue; d: D form. Actinocin(9to1) = Cc1c2oc3c(C)ccc(C(=O)[*:1])c3nc-2c(C(=O)[*:2])c(N)c1=O; NMeV = CN[CH](C(=O)O)C(C)C; Sar = CNCC(=O)O
Outcomes: active, inactive

{"Compound": "COc1cc2c(cc1O)CCN[C@@]21CS[C@H]2c3c(OC(C)=O)c(C)c4c(c3C(COC1=O)N1C2C2NC(Cc3cc(C)c(OC)c(O)c32)[C@@H]1C#N)OCO4 (stereo partly drawn)", "Class": "active"}
{"Compound": "CCc1c(-c2ccccc2)[nH]c2ccccc2c1=O", "Class": "inactive"}
{"Compound": "C/C(=N/NC(=S)Nc1ccc(Cl)cc1)c1cccc(/C(C)=N\\NC(=S)Nc2ccc(Cl)cc2)n1", "Class": "inactive"}
{"Compound": "OCc1cn(C(c2ccccc2)(c2ccccc2)c2ccccc2)cn1", "Class": "inactive"}
{"Compound": "CO/[N+]([O-])=C\\C(=O)N/C=C/C(=O)O", "Class": "inactive"}
{"Compound": "Nc1c(C(=O)O)nnc2ccc(Cl)cc12", "Class": "inactive"}
{"Compound": "Cc1c2oc3c(C)ccc(C(=O)NC4C(=O)NC(Cc5ccccc5)C(=O)N5CCCC5C(=O)N(C)CC(=O)N(C)C(C(C)C)C(=O)OC4C)c3nc-2c(C(=O)NC2C(=O)NC(Cc3ccccc3)C(=O)N3CCCC3C(=O)N(C)CC(=O)N(C)C(C(C)C)C(=O)OC2C)c(N)c1=O (stereo not drawn) (I: TFP[Sar][NMeV] / II: TFP[Sar][NMeV]; ester I:1-I:C, II:1-II:C; linker I:N-II:N via Actinocin(9to1); configuration not given here)", "Class": "active"}
{"Compound": "O=c1c2ccccc2nc(N/N=C/c2ccc(Cl)cc2)n1-c1ccccc1", "Class": "inactive"}
{"Compound": "O=C1C=CC(=O)C2=C1[C@@H](O)C1CC=CC3C(=O)O[C@@H]2C31 (stereo partly drawn)", "Class": "inactive"}
{"Compound": "CCCCNC1=C2C(=O)NN=C2CO1", "Class": "inactive"}
{"Compound": "COc1cc(C(C)(C)C)c(OC(=O)/C=C/C(=O)O/C=C/[N+](=O)[O-])c(C(C)(C)C)c1", "Class": "inactive"}
{"Compound": "c1ccc(NC2(c3nnnn3C3CCCCC3)CCNCC2)cc1", "Class": "inactive"}
{"Compound": "COc1cc(/C=C/c2ccc(O)c(OC)c2)cc(OC)c1", "Class": "inactive"}
{"Compound": "C=C(c1ccccc1)C1(O)CCCCC1N (stereo not drawn)", "Class": "inactive"}
{"Compound": "O=C(O)c1ccccc1/C=C1\\Cc2ccc3c(c2C1=O)CCCC3", "Class": "inactive"}
{"Compound": "COc1cccc([C@H]2C/C(=N\\NC(=O)C(=O)N[C@@H](C)c3ccccc3)c3ccccc3N2)c1", "Class": "inactive"}
{"Compound": "NC(Cc1ccccc1)c1nccs1 (stereo not drawn)", "Class": "inactive"}
{"Compound": "CCOC(=O)c1oc2c(OC)cc(Cl)c3c2c1CCC3", "Class": "inactive"}
